# System: U-937
# assay.notes: Cytotoxicity against human U937 cells assessed as decrease in cell number after 24 hrs by MTT assay
# Type: functional, cell-based
# experimental.context: U-937, 24 h
Threshold check on IC50: strictly below 40 µg/mL is true; on or above 40 µg/mL is false.

Regarding Brc1ccc(Oc2cc(Br)cc(Br)c2OCCCCCN2CCN(c3ccccc3)CC2)c(Br)c1 , kindly confirm whether its IC50 is beneath 40 µg/mL.
false

Regarding Oc1c(Br)cc(Br)cc1Oc1ccc(Br)cc1Br , kindly confirm whether its IC50 is beneath 40 µg/mL.
true

Regarding BrCCCCCOc1c(Br)cc(Br)cc1Oc1ccc(Br)cc1Br , kindly confirm whether its IC50 is beneath 40 µg/mL.
true

Regarding CC(=O)Oc1c(Br)cc(Br)cc1Oc1ccc(Br)cc1Br , kindly confirm whether its IC50 is beneath 40 µg/mL.
true

* * *

# System: HL-60
# assay.notes: Cytotoxicity against human HL60 cells assessed as decrease in cell number after 24 hrs by MTT assay
# Type: functional, cell-based
# experimental.context: HL-60, 24 h
Threshold check on IC50: strictly below 30 mg/L is condition met; on or above 30 mg/L is condition not met.

Regarding Brc1ccc(Oc2cc(Br)cc(Br)c2OCc2ccccc2)c(Br)c1 , kindly confirm whether its IC50 is beneath 30 mg/L.
condition met

Regarding COc1c(Br)cc(Br)cc1Oc1ccc(Br)cc1Br , kindly confirm whether its IC50 is beneath 30 mg/L.
condition met

Regarding BrCCCCCCOc1c(Br)cc(Br)cc1Oc1ccc(Br)cc1Br , kindly confirm whether its IC50 is beneath 30 mg/L.
condition not met

Regarding CN1CCN(CCCCCOc2c(Br)cc(Br)cc2Oc2ccc(Br)cc2Br)CC1 , kindly confirm whether its IC50 is beneath 30 mg/L.
condition not met

Regarding BrCCCCCOc1c(Br)cc(Br)cc1Oc1ccc(Br)cc1Br , kindly confirm whether its IC50 is beneath 30 mg/L.
condition met

Regarding COc1ccccc1N1CCN(CCCCCOc2c(Br)cc(Br)cc2Oc2ccc(Br)cc2Br)CC1 , kindly confirm whether its IC50 is beneath 30 mg/L.
condition not met

Regarding COc1cc([C@@H]2c3cc4c(cc3[C@@H](O[C@@H]3O[C@@H]5CO[C@@H](C)O[C@H]5[C@H](O)[C@H]3O)[C@H]3COC(=O)[C@H]23)OCO4)cc(OC)c1O [ETOPOSIDE] , kindly confirm whether its IC50 is beneath 30 mg/L.
condition met

Regarding CCOC(=O)C(C)Oc1c(Br)cc(Br)cc1Oc1ccc(Br)cc1Br (stereo not given) , kindly confirm whether its IC50 is beneath 30 mg/L.
condition not met

Regarding CC(C)(C)OC(=O)N1CCN(CCCCCOc2c(Br)cc(Br)cc2Oc2ccc(Br)cc2Br)CC1 , kindly confirm whether its IC50 is beneath 30 mg/L.
condition not met

Regarding Cc1ccc(S(=O)(=O)n2nc(N3CCN(CCCCCOc4c(Br)cc(Br)cc4Oc4ccc(Br)cc4Br)CC3)c3cc([N+](=O)[O-])ccc32)cc1 , kindly confirm whether its IC50 is beneath 30 mg/L.
condition not met

Regarding Brc1ccc(Oc2cc(Br)cc(Br)c2OCCCCCN2CCN(C/C=C/c3ccccc3)CC2)c(Br)c1 , kindly confirm whether its IC50 is beneath 30 mg/L.
condition not met

Regarding Brc1ccc(Oc2cc(Br)cc(Br)c2OCCCCCN2CCOCC2)c(Br)c1 , kindly confirm whether its IC50 is beneath 30 mg/L.
condition not met

Regarding OCCOc1c(Br)cc(Br)cc1Oc1ccc(Br)cc1Br , kindly confirm whether its IC50 is beneath 30 mg/L.
condition met

Regarding CC(C)(C)OC(=O)N1CCCN(CCCCCOc2c(Br)cc(Br)cc2Oc2ccc(Br)cc2Br)CC1 , kindly confirm whether its IC50 is beneath 30 mg/L.
condition not met

Regarding BrCCCCOc1c(Br)cc(Br)cc1Oc1ccc(Br)cc1Br , kindly confirm whether its IC50 is beneath 30 mg/L.
condition met

Regarding Oc1c(Br)cc(Br)cc1Oc1ccc(Br)cc1Br , kindly confirm whether its IC50 is beneath 30 mg/L.
condition met
